Molecular target: UniProtKB Q07820
Experiment: Protein-protein interaction assay MCL-1/Noxa BH3 peptide (MCL-1 assay), TR-FRET
Format: binding
Conditions: MBP-MCL-1 / Noxa BH3-derived peptide, median
endpoint: IC50 (nM)

Cn1ncc2c1COCCCCn1c(C(=O)O)c(CCCOc3cccc4ccccc34)c3cccc-2c31 (racemic)    40.3

P. Cc1c2c(nn1C)CN(C)CCCCn1c(C(=O)O)c(CCCOc3cccc4ccccc34)c3cccc-2c31 (single isomer, unassigned; enantiomer 2) [Example 069]
Q. Cc1c2c(nn1C)CCCCCCn1c(C(=O)O)c(CCCOc3cccc4ccccc34)c3cccc-2c31 (single isomer, unassigned; enantiomer 1) [Example 191]
**Q:** Of P versus Q , which is the one with smaller reported IC50? Response format: the label of the selected entry.
**A:** Q

###

Test system: A2780
Test: Anti-proliferative effect (CellTiter-Glo, 72 h), A2780
Assay type: cell-based
Settings: A2780 cells, median, read-out: IC50 antiproliferation assay A2780 [M] (median)
endpoint: IC50 (M)

Please review the following examples before continuing.
Cn1nc(CC(F)(F)F)c2c1COCCCCn1c(C(=O)O)c(CCCOc3cccc4ccccc34)c3cccc-2c31 (single isomer, unassigned) [Example 221]    3.28e-05
CCc1c2c(nn1C)COCCCCn1c(C(=O)O)c(CCCOc3cccc4c3CCCC4)c3cccc-2c31 (racemic) [Example 290]    2.62e-05
CCc1c2c(nn1C)COCCCCn1c(C(=O)O)c(CCCOc3cccc4ccccc34)c3cccc-2c31 (single isomer, unassigned; enantiomer 2) [Example 149]    2.84e-05
Cn1nc(COc2ccc(NS(C)(=O)=O)cc2)c2c1COCCCCn1c(C(=O)O)c(CCCOc3cccc4ccccc34)c3cccc-2c31 (single isomer, unassigned; enantiomer 2) [Example 323]    2.18e-05

P. Cn1nc(COc2ccc(N3CCN(S(=O)(=O)C4CC4)CC3)cc2)c2c1COCCCCn1c(C(=O)O)c(CCCOc3cccc4ccccc34)c3cccc-2c31 (single isomer, unassigned; enantiomer 2) [Example 1-13]
Q. CC(=O)N1CCN(c2ccc(OCc3nn(C)c4c3-c3cccc5c(CCCOc6cccc7ccccc67)c(C(=O)O)n(c35)CCCCOC4)cc2)CC1 (single isomer, unassigned; enantiomer 2) [Example 1-26]
**Q:** Param pair: P , Q . Output: the one whose IC50 is numerically greater. Response format: the label of the selected entry.
**A:** Q

###

Target: MCL-1 (Homo sapiens, UniProt Q07820)
Sequence (Q07820 whole entry): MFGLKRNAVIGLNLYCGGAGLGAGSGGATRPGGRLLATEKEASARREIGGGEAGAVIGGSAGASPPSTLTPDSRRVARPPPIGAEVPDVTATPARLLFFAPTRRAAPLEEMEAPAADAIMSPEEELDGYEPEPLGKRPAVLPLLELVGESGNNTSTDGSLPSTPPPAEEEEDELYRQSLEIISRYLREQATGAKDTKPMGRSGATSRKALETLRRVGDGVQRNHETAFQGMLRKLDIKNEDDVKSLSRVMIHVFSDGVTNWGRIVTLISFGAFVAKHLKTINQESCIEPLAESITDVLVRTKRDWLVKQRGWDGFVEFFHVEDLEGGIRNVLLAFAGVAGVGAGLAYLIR
Assay: Protein-protein interaction assay MCL-1/Noxa BH3 peptide (MCL-1 assay), TR-FRET
Assay type: binding
Conditions: MBP-MCL-1 / Noxa BH3-derived peptide, median
endpoint: IC50 (nM)

Please review the following examples before continuing.
Cc1ccc2c(C(C)CCOc3cccc4ccccc34)c(C(=O)O)n3c2c1-c1c(C)nn(C)c1COCCCC3 (racemic) [Example 256]    42.5
Cc1ccc2c(C(C)CCOc3cccc4cc(F)ccc34)c(C(=O)O)n3c2c1-c1c(nn(C)c1C)COCCCC3 (single isomer, unassigned) [Example 278]    142
CN(C)S(=O)(=O)N1CCN(c2ccc(OCc3nn(C)c4c3-c3cccc5c(CCCOc6cccc7ccccc67)c(C(=O)O)n(c35)CCCCCC4)cc2)CC1 (single isomer, unassigned; enantiomer 2) [Example 1-41]    1.06
CN1CCCn2c(C(=O)O)c(CCCOc3cccc4ccccc34)c3cccc(c32)-c2cnn(C)c2C1 (racemic)    17.3
COCCn1nc(C2CC2)c2c1COCCCCn1c(C(=O)O)c(CCCOc3cccc4ccccc34)c3cccc-2c31 (racemic) [Example 102]    6.82

A. COc1ccc2c(CCCOc3cccc4ccccc34)c(C(=O)O)n3c2c1-c1c(C)nn(C)c1COCCCC3 (single isomer, unassigned; enantiomer 2) [Example 353]
B. Cc1nn(C)c2c1-c1cccc3c(CCCOc4cccc5cc(F)ccc45)c(C(=O)O)n(c13)CCCCOC2 (racemic) [Example 018]
C. Cn1nc(CC(F)(F)F)c2c1COCCCCn1c(C(=O)O)c(CCCOc3cccc4ccccc34)c3cccc-2c31 (racemic) [Example 219]
**Q:** Ordering: ascending IC50. Sort and list the labels as requested.
**A:** B, C, A
(B: 4.53 nM, C: 14 nM, A: 1280 nM)

a. CCc1c2c(nn1C)COCCCCn1c(C(=O)O)c(CCCOc3cccc4c3CCCC4)c3cccc-2c31 (racemic)
b. CC(C)OCc1nn(C)c2c1-c1cccc3c(CCCOc4cccc5ccccc45)c(C(=O)O)n(c13)CCCCN(C)C2 (single isomer, unassigned) [Example 1-75]
c. Cc1ccc2c(C(C)CCOc3cccc4ccccc34)c(C(=O)O)n3c2c1-c1c(nn(C)c1C)COCCCC3 (racemic)
d. COCC(=O)N1CCN(c2ccc(OCc3nn(C)c4c3-c3cccc5c(CCCOc6cccc7ccccc67)c(C(=O)O)n(c35)CCCCOC4)cc2)CC1 (single isomer, unassigned; enantiomer 2) [Example 1-29]
**Q:** Ordering: ascending IC50. Sort and list the labels as requested.
**A:** d, a, b, c

###

Measured IC50 by item
System: SUDHL5
Test: Induction of cytotoxicity (CellTiter-Glo, 5 h), SUDHL5
Details: read-out: Cytotox SUDHL5 [M] (median); SUDHL5 cells, cytotoxicity induction, CellTiter-Glo, 5 h incubation, median
Form entry: value (M) — number only.

Please review the following examples before continuing.
CC(C)OCc1nn(C)c2c1-c1cccc3c(CCCOc4cccc5ccccc45)c(C(=O)O)n(c13)CCCCN(C)C2 (single isomer, unassigned)    9.82e-06
CCc1c2c(nn1C)COCCCCn1c(C(=O)O)c(CCCOc3cccc4cc(F)ccc34)c3cccc-2c31 (single isomer, unassigned) [Example 283]    2.17e-05
CCc1c2c(nn1CCN1CCOCC1)COCCCCn1c(C(=O)O)c(CCCOc3cccc4ccccc34)c3ccc(C)c-2c31 (single isomer, unassigned; enantiomer 2) [Example 206]    1.4e-05

The reported IC50 of the molecule Cn1nc(COC2CC2)c2c1COCCCCn1c(C(=O)O)c(CCCOc3cccc4ccccc34)c3cccc-2c31 (single isomer, unassigned) [Example 214] was 1.14e-05

###

Tested on: SUDHL5
Test: Anti-proliferative effect (CellTiter-Glo, 72 h), SUDHL5
Format: cell-based
Conditions: Homo sapiens, SU-DHL-5, 72 h, SUDHL5 cells, antiproliferation, 72 h incubation, median, read-out: Antiproli SUDHL5 [M] (median)
Where a name gives a salt, the structure may show the parent alone.
endpoint: IC50 (M)

Please review the following examples before continuing.
COCc1c2c(nn1C)COCCCCn1c(C(=O)O)c(CCCOc3cccc4ccccc34)c3cccc-2c31 (racemic)    8.47e-06
Cn1nc(COc2ccccc2)c2c1COCC=CCn1c(C(=O)O)c(CCCOc3cccc4ccccc34)c3cccc-2c31 (single isomer, unassigned) [Example 1-77]    2.96e-05
COCc1nn(C)c2c1-c1cccc3c(CCCOc4cccc5ccccc45)c(C(=O)O)n(c13)CCCCCOC2 (single isomer, unassigned; enantiomer 1) [Example 178]    9.37e-06
Cc1ccc2c(CCCOc3cccc4c3CCCC4)c(C(=O)O)n3c2c1-c1c(C)nn(C)c1COCCCC3 (racemic)    1.11e-05

a. Cc1nn(CCN(C)C)c2c1-c1cccc3c(CCCOc4cccc5ccccc45)c(C(=O)O)n(c13)CCCCOC2 (racemic) [Example 244, Trifluoroacetic Acid Salt]
b. Cc1ccc2c(CCCOc3cccc4ccccc34)c(C(=O)O)n3c2c1-c1c(C)nn(C)c1COCCCC3 (single isomer, unassigned; enantiomer 1) [Example 028]
c. Cc1cc(OCCCc2c(C(=O)O)n3c4c(cccc24)-c2c(C)nn(C)c2COCCCC3)cc(C)c1Cl (single isomer, unassigned; enantiomer 1) [Example 010]
**Q:** Order the 3 molecules from highest to lowest IC50. Sort and list the labels as requested.
**A:** b, c, a
(b: 2.97e-05 M, c: 1.27e-05 M, a: 5.23e-06 M)

P. Cn1nc(COC2CC2)c2c1COCCCCn1c(C(=O)O)c(CCCOc3cccc4ccccc34)c3cccc-2c31 (racemic) [Example 213]
Q. COC1(c2ccc(OCc3nn(C)c4c3-c3cccc5c(CCCOc6cccc7ccccc67)c(C(=O)O)n(c35)CCCCOC4)cc2)CCOCC1 (racemic)
**Q:** Param pair: P , Q . Output: the one whose IC50 is numerically greater. Response format: the label of the selected entry.
**A:** Q
(Q: 3.71e-06 M, P: 2.49e-06 M)

1. COCc1nn(C)c2c1-c1cccc3c(CCCOc4cccc5ccccc45)c(C(=O)O)n(c13)CCCCN(C)C2 (racemic)
2. Cn1nc(CCN2CCOCC2)c2c1COCCCCn1c(C(=O)O)c(CCCOc3cccc4ccccc34)c3cccc-2c31 (racemic)
**Q:** Param pair: 1 , 2 . Output: the one whose IC50 is numerically greater. Response format: the label of the selected entry.
**A:** 2
(2: 2.11e-05 M, 1: 2.43e-06 M)

Where these numbers come from: patent US10981932B2
